Where do these numbers come from? They come from BindingDB's records for patent US20250163061.

biological target: Menin (Homo sapiens); test: Primary Assay Used to Determine Potency of MEN1 Activity Inhibition
EC50 reference

{"molecule": "Cc1c(CN2CCC3(CC2)CN(c2ncnc4ccc(CC(F)(F)F)nc24)C3)ccc2c1cc(C#N)n2CC(C)N1CCN(S(C)(=O)=O)CC1 (stereo not drawn)", "EC50": "< 0.075 µM"}
{"molecule": "Cc1c(CN2CCC3(CC2)CN(c2ncnc4ccc(CC(F)(F)F)cc24)C3)ccc2c1cc(C#N)n2[C@H](C)CN1CCN(S(C)(=O)=O)CC1", "EC50": "< 0.075 µM"}
{"molecule": "C=CC(=O)N1CCN(CCCCn2c(C#N)cc3c(C)c(CN4CCC5(CC4)CN(c4ncnc6ccc(CC(F)(F)F)cc46)C5)ccc32)CC1", "EC50": "< 0.075 µM"}

====

In this section, each of the compounds is paired with its reported pEC50.
target: UniProt O00255; assay: Primary Assay Used to Determine Potency of MEN1 Activity Inhibition
pEC50: −log10 of the molar value.

{"compound": "C=CC(=O)N1CCN(CCCn2c(C#N)cc3c(C)c(CN4CCC5(CC4)CN(c4ncnc6ccc(CC(F)(F)F)cc46)C5)ccc32)CC1", "target-or-system": "UniProt O00255", "pEC50": "> 7.12"}
{"compound": "CC(Cn1c(C#N)cc2c(F)c(CN3CCC4(CC3)CN(c3ncnc5ccc(CC(F)(F)F)cc35)C4)ccc21)N1CCN(S(C)(=O)=O)CC1 (stereo not drawn)", "target-or-system": "UniProt O00255", "pEC50": "6.30 to 7.12"}
{"compound": "CCCCS(=O)(=O)N1CCN(C(C)Cn2c(C#N)cc3c(C)c(CN4CCC5(CC4)CN(c4ncnc6ccc(CC(F)(F)F)cc46)C5)ccc32)CC1 (stereo not drawn)", "target-or-system": "UniProt O00255", "pEC50": "> 7.12"}

====

Recorded pEC50, one value per entry.
target: Menin (Homo sapiens, UniProt O00255); test: Primary Assay Used to Determine Potency of MEN1 Activity Inhibition
Sequence (O00255 whole entry): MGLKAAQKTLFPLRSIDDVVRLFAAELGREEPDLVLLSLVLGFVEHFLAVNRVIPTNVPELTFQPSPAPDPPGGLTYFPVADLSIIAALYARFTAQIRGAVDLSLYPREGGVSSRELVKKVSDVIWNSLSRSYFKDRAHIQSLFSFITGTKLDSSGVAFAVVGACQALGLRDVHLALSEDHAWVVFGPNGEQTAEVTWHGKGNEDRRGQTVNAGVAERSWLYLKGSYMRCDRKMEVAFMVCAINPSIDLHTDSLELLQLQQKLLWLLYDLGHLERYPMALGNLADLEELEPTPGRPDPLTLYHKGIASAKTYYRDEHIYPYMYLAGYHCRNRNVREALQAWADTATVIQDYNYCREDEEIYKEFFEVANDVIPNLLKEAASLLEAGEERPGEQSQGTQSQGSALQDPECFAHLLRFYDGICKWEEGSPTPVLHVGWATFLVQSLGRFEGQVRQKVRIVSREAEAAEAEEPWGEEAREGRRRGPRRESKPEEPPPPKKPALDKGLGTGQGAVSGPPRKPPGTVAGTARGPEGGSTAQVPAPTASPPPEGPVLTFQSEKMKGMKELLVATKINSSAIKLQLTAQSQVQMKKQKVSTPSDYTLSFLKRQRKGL
pEC50: −log10 of the molar value.

{"molecule": "Cc1c(CN2CCC3(CC2)CN(c2ncnc4ccc(CC(F)(F)F)cc24)C3)ccc2c1cc(C#N)n2CCCCN1CCN(S(C)(=O)=O)CC1", "pEC50": "> 7.12"}
{"molecule": "Cc1c(CN2CCC3(CC2)CN(c2ncnc4ccc(CC(F)(F)F)cc24)C3)ccc2c1cc(C#N)n2CC(C)N1CCNC(=O)C1 (stereo not given)", "pEC50": "> 7.12"}
{"molecule": "CCS(=O)(=O)N1CCN([C@@H](C)Cn2c(C#N)cc3c(C)c(CN4CCC5(CC4)CN(c4ncnc6ccc(CC(F)(F)F)cc46)C5)ccc32)C[C@@H]1C", "pEC50": "> 7.12"}
{"molecule": "Cc1c(CN2CCC3(CC2)CN(c2nc(=O)[nH]c4ccc(CC(F)(F)F)cc24)C3)ccc2c1cc(C#N)n2C[C@@H]1CNC(=O)CO1", "pEC50": "6.00 to 6.30"}
{"molecule": "Cc1c(CN2CCC3(CC2)CN(c2ncnc4ccc(CC(F)(F)F)cc24)C3)ccc2c1cc(C#N)n2CC(C)N1CCN(S(=O)(=O)C(C)C)CC1 (stereo not given)", "pEC50": "> 7.12"}
